binders and their reported ND 50 MN assay, live virus
SYSTEM TESTED: Spike protein on live SARS-CoV-2 Alpha strain (SARS-CoV-2 Alpha (B.1.1.7), UniProt P0DTC2 14-1273)
TEST NAME: cell-based or functional assay
Give just the numeric value; nM need not be written.

C5 trimer (VHH, also called trimeric C5 nanobody; C5-6GS-C5-6GS-C5) QVQLVESGGGSVQAGGSLTLSCVASGVTLGRHAIGWFRQAPGKERERVSCIRTFDGITSYVESTKGRFTISSNNAMNTVYLQMNSLKPEDTAVYFCALGVTAACSDNPYFWGQGTQVTVSSGSGSGSQVQLVESGGGSVQAGGSLTLSCVASGVTLGRHAIGWFRQAPGKERERVSCIRTFDGITSYVESTKGRFTISSNNAMNTVYLQMNSLKPEDTAVYFCALGVTAACSDNPYFWGQGTQVTVSSGSGSGSQVQLVESGGGSVQAGGSLTLSCVASGVTLGRHAIGWFRQAPGKERERVSCIRTFDGITSYVESTKGRFTISSNNAMNTVYLQMNSLKPEDTAVYFCALGVTAACSDNPYFWGQGTQVTVSS: 0.25
C1 trimer (VHH) QVQLVESGGGLVQPGGSLRLSCAASGFTNDFYSIAWFRQAPGKEREGVSWLSVSDNTPTYVDSVKDRFTISRHNANNTVYLQMNMLKPEDTAIYYCAAGRFAGRDTWPSSYDYWGQGTQVTVSSGSGSGSQVQLVESGGGLVQPGGSLRLSCAASGFTNDFYSIAWFRQAPGKEREGVSWLSVSDNTPTYVDSVKDRFTISRHNANNTVYLQMNMLKPEDTAIYYCAAGRFAGRDTWPSSYDYWGQGTQVTVSSGSGSGSQVQLVESGGGLVQPGGSLRLSCAASGFTNDFYSIAWFRQAPGKEREGVSWLSVSDNTPTYVDSVKDRFTISRHNANNTVYLQMNMLKPEDTAIYYCAAGRFAGRDTWPSSYDYWGQGTQVTVSS: 8.2
A8 trimer (bispecific antibody) QVQLVESGGGLVQAGGSLRLSCAASGGTFSTAAMGWFRQAPGEERECVASIGWRGVRTWYADSVKGRFTISRDNPQNTVYLQMNNLKSGDTAVYYCAASVGNYGLPWAHFEYDFWGQGIQVTVSSGSGSGSQVQLVESGGGLVQAGGSLRLSCAASGGTFSTAAMGWFRQAPGEERECVASIGWRGVRTWYADSVKGRFTISRDNPQNTVYLQMNNLKSGDTAVYYCAASVGNYGLPWAHFEYDFWGQGIQVTVSSGSGSGSQVQLVESGGGLVQAGGSLRLSCAASGGTFSTAAMGWFRQAPGEERECVASIGWRGVRTWYADSVKGRFTISRDNPQNTVYLQMNNLKSGDTAVYYCAASVGNYGLPWAHFEYDFWGQGTQVTVSSKHHHHHH: 0.1

The record that follows has no ND 50 MN assay, live virus shown yet.
query: Record request: ND 50 MN assay, live virus value, item H3 trimer (VHH) QVQLVESGGGLVKTGGSLRLSCAASGRTFSTYSMGWFRQAPGKEREFVAGMRWTGSSTFYSDSVKGRFTVSRNNAKDTVYLHMNSLKPEDTAVYYCAITTIVRAYYTEYTEADFGSWGQGTQVTVSSGAVLAPQVQLVESGGGLVKTGGSLRLSCAASGRTFSTYSMGWFRQAPGKEREFVAGMRWTGSSTFYSDSVKGRFTVSRNNAKDTVYLHMNSLKPEDTAVYYCAITTIVRAYYTEYTEADFGSWGQGTQVTVSSGSGSGSQVQLVESGGGLVKTGGSLRLSCAASGRTFSTYSMGWFRQAPGKEREFVAGMRWTGSSTFYSDSVKGRFTVSRNNAKDTVYLHMNSLKPEDTAVYYCAITTIVRAYYTEYTEADFGSWGQGTQVTVSS
result: 0.6
